experiment: Inhibition of IL-6/JAK/STAT3 signalling pathway in HEK-Blue IL-6 cells incubated for 16 hrs by QUANTI-blue assay; assay type: cell-based; conditions: Homo sapiens, HEK-Blue IL-6, 16 h
pIC50: −log10 of the molar value.
Parameter: pIC50

1) Fc1ccc(-c2nc3cc(Nc4nnc(-c5ccc(Cl)c(C(F)(F)F)c5)s4)c(F)cc3n2C2CC2)cc1	< 5.00
2) CCCn1c(-c2cccc(F)c2)nc2cc(Nc3nnc(-c4ccccc4C(F)(F)F)s3)c(F)cc21	< 5.00

Consider the additional molecule presented here.
Fill in the blank: the reported pIC50 of Fc1ccc(-c2nc3cc(Nc4nnc(-c5ccc(C(F)(F)F)cc5)s4)ccc3n2C2CC2)cc1 is ____.
< 5.00

Recorded values, source ChEMBL document CHEMBL5321275.
